# METHOD_DESCRIPTION: Compound 7 dog pharmacokinetic study (SC)
# Assay type: in vivo
# MEASUREMENT_CONTEXT: beagle dog plasma, actual dose 2.6 mg/kg (DON eq. 0.8 mg/kg), N = 1, read-out: AUC Cpd 7
EXPERIMENTAL_ENDPOINT: AUC (µM·h)
Note: unit µM·h is implicit; provide only the numeric part.

What measured AUC goes with CC(=O)NCCCC[C@H](NC(=O)C12CC3CC(CC(C3)C1)C2)C(=O)N[C@@H](CCC(=O)C=[N+]=[N-])C(=O)OC(C)C ?
2.1

###

# METHOD_DESCRIPTION: Compound 7 dog pharmacokinetic study (SC)
# Assay type: in vivo
# MEASUREMENT_CONTEXT: beagle dog plasma, actual dose 2.6 mg/kg (DON eq. 0.8 mg/kg), N = 1, read-out: Cmax Cpd 7
EXPERIMENTAL_ENDPOINT: Cmax (nM)
Just the number please, in nM, no unit attached.

So what does the record say about Cmax for CC(=O)NCCCC[C@H](NC(=O)C12CC3CC(CC(C3)C1)C2)C(=O)N[C@@H](CCC(=O)C=[N+]=[N-])C(=O)OC(C)C ?
640

###

# METHOD_DESCRIPTION: Dog pharmacokinetic study of compound #2 (IV infusion or SC)
# Format: in vivo
# MEASUREMENT_CONTEXT: intact #2 in plasma, SC bolus, 0.2 mg/kg DON equivalent, male beagle dog
# Experimental: The dog pharmacokinetic study was conducted in accordance with the guidelines recommended in Guide for the Care and Use of Laboratory Animals and was approved by the Absorption Systems (San Diego, CA) Institutional Animal Care and Use Committee. Compound #2 was administered to male beagle dogs (n=1/group) as a bolus subcutaneous dose or infused over 1 h at a dose of 0.2 mg/kg DON equivalent. […]
EXPERIMENTAL_ENDPOINT: Cmax (nM)
Answer format: numeric, nM implied, no suffix.

Which Cmax reading was recorded for the compound CC(=O)NCCCC[C@H](NC(=O)OCC1c2ccccc2-c2ccccc21)C(=O)N[C@@H](CCC(=O)C=[N+]=[N-])C(=O)OC(C)C [Compound 2] ?
470

###

# METHOD_DESCRIPTION: Dog pharmacokinetic study of compound #2 (IV infusion or SC)
# Type: in vivo
# MEASUREMENT_CONTEXT: intact #2 in plasma, IV infusion over 1 h, 0.2 mg/kg DON equivalent, male beagle dog
# Procedure: The dog pharmacokinetic study was conducted in accordance with the guidelines recommended in Guide for the Care and Use of Laboratory Animals and was approved by the Absorption Systems (San Diego, CA) Institutional Animal Care and Use Committee. Compound #2 was administered to male beagle dogs (n=1/group) as a bolus subcutaneous dose or infused over 1 h at a dose of 0.2 mg/kg DON equivalent. […]
EXPERIMENTAL_ENDPOINT: Cmax (µM)
# unit: µM | format: bare number

Field request: Cmax | item: CC(=O)NCCCC[C@H](NC(=O)OCC1c2ccccc2-c2ccccc21)C(=O)N[C@@H](CCC(=O)C=[N+]=[N-])C(=O)OC(C)C
6.57

###

# METHOD_DESCRIPTION: Dog pharmacokinetic study of compound #2 (IV infusion or SC)
# Type: in vivo
# MEASUREMENT_CONTEXT: intact #2 in plasma, IV infusion over 1 h, 0.2 mg/kg DON equivalent, male beagle dog
EXPERIMENTAL_ENDPOINT: Tmax (min)
Report only the number, with the unit min understood.

Return reported Tmax; argument: CC(=O)NCCCC[C@H](NC(=O)OCC1c2ccccc2-c2ccccc21)C(=O)N[C@@H](CCC(=O)C=[N+]=[N-])C(=O)OC(C)C
4.8

The measurements presented in this section are drawn from patent US12195419B2.
